meta.source: paper PMC2847917

# study.target: P2X4 receptor (Mus musculus, UniProt Q9JJX6)
# Sequence (Q9JJX6 1-388): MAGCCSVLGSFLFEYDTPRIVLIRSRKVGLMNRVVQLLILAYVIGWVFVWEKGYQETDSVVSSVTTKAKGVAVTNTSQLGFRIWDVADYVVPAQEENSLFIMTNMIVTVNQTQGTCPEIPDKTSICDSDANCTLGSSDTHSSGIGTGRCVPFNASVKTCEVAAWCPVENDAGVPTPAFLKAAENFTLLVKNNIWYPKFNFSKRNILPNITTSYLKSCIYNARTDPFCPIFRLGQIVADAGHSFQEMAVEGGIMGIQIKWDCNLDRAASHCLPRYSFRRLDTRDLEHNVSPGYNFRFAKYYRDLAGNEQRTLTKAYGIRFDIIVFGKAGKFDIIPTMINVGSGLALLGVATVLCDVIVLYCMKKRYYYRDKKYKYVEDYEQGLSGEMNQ
# procedure.text: cell-based
readout.type: pEC50
Remember, pEC50 is on a log scale: it is -log10 of the molar concentration.

Nc1ncnc2c1ncn2[C@@H]1O[C@H](COP(=O)(O)OP(=O)(O)OP(=O)(O)O)[C@@H](O)[C@H]1O [ATP] tested on P2X4 receptor (Mus musculus, UniProt Q9JJX6) gave pEC50: 4.48
